# Study system: HLA-A*02:01 (Homo sapiens, UniProt P04439, D140Y/D185E/D98H/E176V/E277Q/G131W/G231S/I119V/I121R/I166T/I218V/L300P/L318F/N151K/N90K/P208A/P217A/Q86G/Q94H/R138H/R169H/T345S)
# Protocol details: MHC binding assay (UV-ligand exchange, β2m ELISA, peptide exchange yield)
# Measurement setup: binding of HLA-class I restricted peptides to HLA-A*02:01, UV-ligand exchange
Result type: Peptide exchange (MHC class I binding score, peptide exchange yield)

Illustrative cases are given below, each with its answer.
367 (SLQNHNHQL; listed as Homo sapiens) [compound 367]: “+++” (≥50 = +++)
79 (SLFIGEKAVLL; listed as Homo sapiens) [compound 79]: “+++” (≥50 = +++)
152 (ILFEDIFDV; listed as Homo sapiens) [compound 152]: “+++” (≥50 = +++)
271 (LVYPLELYPA; listed as Homo sapiens) [compound 271]: “+++” (≥50 = +++)

Req: What value of measured Peptide exchange (MHC class I binding score, peptide exchange yield) is listed for 340 (ALLSMTFPL; listed as Homo sapiens) [compound 340] ?
Resp: “++++” (≥75% = ++++)
